Each recorded value in this set is attributed to ChEMBL document CHEMBL1201862.

# Assayed system: Eukaryotic translation initiation factor 4E (Mus musculus, UniProt P63073)
# Sequence (P63073 whole entry): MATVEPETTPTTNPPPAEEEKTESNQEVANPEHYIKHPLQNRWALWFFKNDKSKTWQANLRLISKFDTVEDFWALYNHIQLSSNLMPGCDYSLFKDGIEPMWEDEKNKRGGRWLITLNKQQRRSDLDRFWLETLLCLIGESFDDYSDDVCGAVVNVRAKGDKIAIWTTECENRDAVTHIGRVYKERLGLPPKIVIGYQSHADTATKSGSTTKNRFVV
# Protocol details: eIF4E–eIF4G protein interaction inhibitors, dose response, biochemical, TR-FRET (AID 855);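 further: potency for disrupting eIF4E binding to eIF4GI seen as loss of FRET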
# Assay type: functional
Activity calls are given as the source filed them.
Parameter: IC50. Scope: all listed entries.

Smi: Cc1cc(C)n(-c2nnc3n2N=C(c2ccccc2)CS3)n1
IC50: > 64 µM (inactive)
//
Smi: O=C(CSc1nc(-c2ccc(F)cc2)nc2c1Cc1ccccc1O2)Nc1cccc(C(=O)O)c1
IC50: 50 µM (inactive)
//
Smi: Cc1sc(NC(=O)Cn2nc(C(F)(F)F)cc2C)c(C(=O)OC(C)C)c1C
IC50: > 64 µM (inactive)
//
Smi: COc1ccc(O)c(/C=C(\C#N)C(=O)Nc2cccnc2)c1
IC50: > 64 µM (inactive)

For the next question, use this molecule.
Q) For the molecule CCOC(=O)c1c(CSC(=N)N)n(-c2ccc(Br)cc2)c2cc(Br)c(OC(C)=O)cc12 , give its measured IC50 value.
A) > 64 µM (inactive)

---

# Protocol details: CRF-BP/CRF-R2 complex antagonists, dose response, cell-based, uHTS hits, 384-well (AID 651639)
# Type: functional, Homo sapiens
# Conditions: read-out: IC50_Mean
Activity calls are given as the source filed them.
Result category, one only: yes (active), no (inactive)

The examples below pair each entry with its known result.
Compound: COc1ccc(N2C(=O)CSC2c2ccc([N+](=O)[O-])cc2)cc1 (stereo not drawn)
Class: yes
--
Compound: CCN(CC)C(=O)[C@H]1CC(CC(=O)NC/C=C(\C)CCC=C(C)C)C(=O)N2CCc3c([nH]c4ccc(OC)cc34)[C@]12C (stereo partly drawn)
Class: yes
--
Compound: CCCNc1ccc(C(=O)OCC)cc1[N+](=O)[O-]
Class: no
--
Compound: c1ccc2c(c1)OCCOCCOCCOCCOCCOc1ccccc1OCCOCCOCCO2
Class: yes

Q) GET /call?item= CC(C)N1C(=O)S/C(=C/c2ccccc2OCc2ccc(C(=O)O)cc2)C1=O returns the recorded outcome of this test.
A) no

Q) Assay result, entry Cc1ccc(SCc2cc(O)nc(SCC(=O)Nc3cc(Cl)ccc3Cl)n2)cc1 — outcome?
A) no

Q) Entry Cc1nc2c(C(=O)NCCc3ccccc3)cnn2c(O)c1Cl : call = ?
A) no

Q) Which outcome did this test record for the compound COc1cc2nc3c(O)n4c(nc-3c2cc1OC)SCCC4 ?
A) no

---

# Assayed system: Cytochrome P450 1A2 (Homo sapiens, UniProt P05177);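 further: PubChem cytochrome P450 panel assay, CYP1A2 panel member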
# Sequence (P05177 whole entry): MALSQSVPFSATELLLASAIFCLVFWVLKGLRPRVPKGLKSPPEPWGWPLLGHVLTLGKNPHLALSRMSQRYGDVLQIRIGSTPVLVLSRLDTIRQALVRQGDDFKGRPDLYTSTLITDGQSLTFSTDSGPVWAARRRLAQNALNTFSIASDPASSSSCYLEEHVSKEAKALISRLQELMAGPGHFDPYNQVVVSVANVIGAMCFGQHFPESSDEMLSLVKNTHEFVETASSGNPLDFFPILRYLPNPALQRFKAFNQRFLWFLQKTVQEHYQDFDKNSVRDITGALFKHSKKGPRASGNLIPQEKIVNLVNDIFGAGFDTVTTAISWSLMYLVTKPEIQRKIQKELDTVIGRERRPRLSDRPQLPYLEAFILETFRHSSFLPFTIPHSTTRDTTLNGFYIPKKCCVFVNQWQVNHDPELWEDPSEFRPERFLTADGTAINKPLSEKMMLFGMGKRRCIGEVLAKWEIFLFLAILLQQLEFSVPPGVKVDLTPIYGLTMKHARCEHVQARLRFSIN
Observed property: AC50

Smi: Cc1ccc(-n2cc(C(=O)c3ccc4ccccc4c3O)cn2)cc1
Observed property: AC50
Result: 1.41 µM (inconclusive)

Q) Provide only the value of recorded AC50 for Oc1c(CN2CCN(c3ccccc3)CC2)cc(Br)c2cccnc12
A) 1.26 µM (inconclusive)

Q) Report AC50 for O=c1[nH]c2cc(Cl)ccc2c(O)c1-c1cccc(Oc2ccccc2)c1
A) 2.51 µM (inconclusive)

Q) Fill in reported AC50 for this entry: Cc1nn(Cc2ccc(Cl)cc2Cl)c(C)c1NC(=O)c1sc2ccccc2c1Cl
A) 25.1 µM (inconclusive)

Q) Note down AC50 recorded for O=C(N/N=C/c1ccncc1)c1cc([N+](=O)[O-])cc([N+](=O)[O-])c1O
A) 5.01 µM (inconclusive)

---

# EC50 per entry
# Protocol details: C. albicans growth with fluconazole, confirmation, fluorescence, retest (AID 2467)
# Assay type: functional, cell-based
The source made the active and inactive calls.

Consider the reported EC50 for these compounds:
Compound: CCn1cc(C(=O)OCC(=O)Nc2cccc(Cl)c2Cl)c(=O)c2ccc(C)nc21
EC50: > 38 µM (not active)
//
Compound: Nc1cc(N)nc(SCc2cccc(F)c2)n1
EC50: > 38 µM (not active)
//
Compound: O=C1N=C(N/N=C/c2cccnc2)SC1Cc1ccc(SC(F)F)cc1 (stereo not given)
EC50: 1.87 µM (active)
//
Compound: C=CCc1cccc(/C=N/NC(=O)CNc2ccccc2OC)c1O
EC50: > 38 µM (not active)

Q) Determine from records and report EC50 for Cc1ccc2c(c1)sc(-c1ccc(N(C)C)cc1)[n+]2C
A) 0.039 µM (active)

---

# Assayed system: Corticotropin-releasing factor receptor 2/Corticotropin-releasing factor-binding protein (Homo sapiens, UniProt P24387+Q13324)
# Sequence (Q13324 whole entry): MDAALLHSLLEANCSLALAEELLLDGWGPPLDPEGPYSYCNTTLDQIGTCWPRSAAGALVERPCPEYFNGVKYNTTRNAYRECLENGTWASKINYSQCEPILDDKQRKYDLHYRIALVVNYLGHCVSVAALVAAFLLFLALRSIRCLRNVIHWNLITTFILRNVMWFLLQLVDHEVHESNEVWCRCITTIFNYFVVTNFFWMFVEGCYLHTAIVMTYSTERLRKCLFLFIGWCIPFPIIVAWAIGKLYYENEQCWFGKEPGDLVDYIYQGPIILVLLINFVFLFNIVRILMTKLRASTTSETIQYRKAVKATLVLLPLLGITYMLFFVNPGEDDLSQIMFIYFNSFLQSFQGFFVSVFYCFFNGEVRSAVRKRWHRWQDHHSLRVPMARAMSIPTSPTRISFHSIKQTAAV
# Sequence (P24387 whole entry): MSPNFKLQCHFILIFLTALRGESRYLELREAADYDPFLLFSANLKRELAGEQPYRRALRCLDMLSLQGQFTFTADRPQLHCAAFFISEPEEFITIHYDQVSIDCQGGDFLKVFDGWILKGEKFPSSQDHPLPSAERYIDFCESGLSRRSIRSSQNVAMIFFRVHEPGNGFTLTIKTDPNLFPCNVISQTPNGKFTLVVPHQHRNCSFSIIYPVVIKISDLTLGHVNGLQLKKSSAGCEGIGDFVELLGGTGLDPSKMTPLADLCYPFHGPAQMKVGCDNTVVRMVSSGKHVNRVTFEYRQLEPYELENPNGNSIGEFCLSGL
# Protocol details: Dose Response confirmation of uHTS hits for small molecule antagonists of the CRF-binding protein and CRF-R2 receptor complex.
# Assay type: functional
# Conditions: read-out: IC50_Mean
Active and inactive are the calls of the source.
Tick one outcome: YES for active, NO for inactive

# count of solved cases: 2
Smi: CC(=O)c1ccc(-c2cccs2)s1
Class: NO

Smi: Cc1nc2c(C(=O)NCCc3ccccc3)cnn2c(O)c1Cl
Class: YES

Next, consider the following molecule.
Q) Could you please tell me the result logged for CCCNc1ccc(C(=O)OCC)cc1[N+](=O)[O-] in this assay?
A) YES

---

# Assayed system: Corticotropin-releasing factor receptor 2/Corticotropin-releasing factor-binding protein (Homo sapiens, UniProt P24387+Q13324)
# Protocol details: Dose Response confirmation of uHTS hits for small molecule antagonists of the CRF-binding protein and CRF-R2 receptor complex.
# Type: functional
# Conditions: read-out: IC50_Mean
Activity calls are given as the source filed them.
Please reply with one of these outcomes: 1 (yes) for active, 0 (no) for inactive

For orientation, consider the following solved cases.
Compound: O=C(Nc1cccn(Cc2c(Cl)cccc2Cl)c1=O)c1c(Cl)cccc1Cl
Class: 1 (yes)
//
Compound: Cc1ccc(CN2CC(C(=O)NCCCSc3ccccc3)CC2=O)cc1 (stereo not given)
Class: 0 (no)
//
Compound: CCN(CC)C(=O)[C@H]1CC(CC(=O)NC/C=C(\C)CCC=C(C)C)C(=O)N2CCc3c([nH]c4ccc(OC)cc34)[C@]12C (stereo not given in full)
Class: 1 (yes)
//
Compound: COc1ccc(N2C(=O)CSC2c2ccc([N+](=O)[O-])cc2)cc1 (stereo not given)
Class: 1 (yes)
//
Compound: CCN(CC)C(=O)CSc1ncnc2c1cnn2-c1ccccc1
Class: 0 (no)

Please find the next compound below.
Q) Outcome logged for CC(C)N1C(=O)S/C(=C/c2ccccc2OCc2ccc(C(=O)O)cc2)C1=O in this assay:
A) 1 (yes)

---

# Assayed system: Zinc finger protein mex-5 (Caenorhabditis elegans)
# Sequence (Q9XUB2 whole entry): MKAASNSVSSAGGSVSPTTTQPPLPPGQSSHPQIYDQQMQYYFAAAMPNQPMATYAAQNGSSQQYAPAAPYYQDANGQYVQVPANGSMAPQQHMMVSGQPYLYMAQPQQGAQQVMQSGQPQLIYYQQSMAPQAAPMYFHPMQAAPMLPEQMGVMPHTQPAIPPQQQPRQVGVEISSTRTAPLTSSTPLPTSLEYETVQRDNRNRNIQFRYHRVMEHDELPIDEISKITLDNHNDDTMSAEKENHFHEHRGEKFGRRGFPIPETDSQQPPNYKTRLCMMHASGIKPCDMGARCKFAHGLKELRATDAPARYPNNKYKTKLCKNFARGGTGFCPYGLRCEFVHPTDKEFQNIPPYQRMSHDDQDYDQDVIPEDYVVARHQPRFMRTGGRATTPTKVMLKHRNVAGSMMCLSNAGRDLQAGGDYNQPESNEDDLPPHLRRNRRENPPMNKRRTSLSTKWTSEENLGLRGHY
# Protocol details: MEX-5/TCR-2 RNA interaction inhibitors, dose response, biochemical, C. elegans, fluorescence polarization (AID 1960)
The source made the active and inactive calls.
Observed property: EC50

Guide cases for EC50, answers given:
Compound: CCOc1ccc(N2C(=O)S/C(=C\c3cccn3C)C2=O)cc1
EC50: > 300 µM (not active)
//
Compound: C/C(=N\Nc1ccc(Cl)c(C(=O)O)c1)c1ccc[nH]1
EC50: > 150 µM (not active)
//
Compound: O=C(N/N=C/c1cc(Cl)cc([N+](=O)[O-])c1O)c1ccccc1NS(=O)(=O)c1cccs1
EC50: 1.56 µM (inconclusive)
//
Compound: CCOC(=O)c1cnc2nc(C)ccc2c1O
EC50: 11.8 µM (active)
//
Compound: N#Cc1c(-c2ccc(Cl)cc2)c2c([nH]c1=O)-c1ccccc1OC2
EC50: 53 µM (active)
//
Compound: COc1ccccc1N1C(=O)C(Cl)=C(Nc2ccccc2O)C1=O
EC50: 8.19 µM (inconclusive)
//
Compound: O=C(Nc1ccccc1F)c1coc(=O)c(Br)c1
EC50: > 300 µM (not active)
//
Compound: COc1cc(OC)c2c(O)c3c(c(-c4c5c(c(O)c6c(OC)cc(OC)cc46)CO[C@@H](C)[C@H]5O)c2c1)[C@H](O)[C@H](C)OC3
EC50: > 300 µM (not active)
//
Compound: CCOC(=O)c1c(N/C=C2/C(=O)NC(=O)N(c3cccc(C)c3)C2=O)sc2c1CCCC2
EC50: > 300 µM (not active)
//
Compound: Cc1nc2ccccc2c(=O)n1/N=C/c1ccc(O)c(O)c1O
EC50: 0.193 µM (active)

Q) State, in one line, measured EC50 of N=C1/C(=C\c2ccc(SCc3ccccc3)o2)C(=O)N=C2SC(CC(=O)N3CCOCC3)=NN12
A) 33.3 µM (active)

Q) For the compound O=C(NN1C(=O)c2ccccc2NC1c1ccccn1)c1ccc(Br)cc1 (configuration not stated) , give its reported EC50.
A) 15.5 µM (active)

---

# Assayed system: Nonstructural protein 1 (Influenza A virus, UniProt Q194T2)
# Sequence (Q194T2 whole entry): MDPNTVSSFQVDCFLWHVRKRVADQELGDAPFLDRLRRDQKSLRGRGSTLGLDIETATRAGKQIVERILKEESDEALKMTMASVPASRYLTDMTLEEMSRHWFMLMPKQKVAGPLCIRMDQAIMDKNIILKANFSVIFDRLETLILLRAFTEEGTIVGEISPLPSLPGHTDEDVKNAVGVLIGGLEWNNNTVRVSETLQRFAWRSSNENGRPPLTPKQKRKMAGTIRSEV
# Type: functional, Influenza A virus (A/California/07/2009(H1N1))
Calls of active or inactive are those of the source.
Observed property: IC50

Smi: CC(C)C(=O)OCC(=O)Nc1ccc(N=Nc2ccccc2)cc1
Result: > 100 µM (active)

Q) # return recorded IC50 for entry Cc1cc([N+](=O)[O-])nn1CC(=O)N/N=C/c1ccc(O)cc1O
A) 14.2 µM (active)

Q) Please supply the value of reported IC50 for the item O=C1C=C(Nc2ccccc2)C(=O)c2ccccc21
A) 81.7 µM (active)

Q) Quick one: give measured IC50 for Oc1cc(NCCc2cccnc2)cc2cccnc12
A) 6.64 µM (active)

Q) Output IC50 of O=C(COC(=O)C1CCCCC1)Nc1ccc(N2CCCCC2)cc1
A) 34.6 µM (active)

Q) Output measured IC50 for this item: CN(C)c1ccc(N=Nc2ccccc2Br)cc1
A) 17.2 µM (active)
